The origin of these recorded values is the supplement of paper PMC11417369.

system: PfAP2-G AP2 domain (GST-tagged); test: gcPBM binding intensity (ln(normalized median fluorescence intensity)); higher = stronger DNA binding
The full ranking holds about 25,000 sequences; the median of “ln(normalized median fluorescence intensity)” is about 10, and the highest 2% start at about 12. Many of the other results were omitted from the sample, so the highest values are more common in it than they were.
measuredEndpoint: gcPBM binding intensity (ln)
# output: bare number, no unit

## Input Recorded gcPBM binding intensity (ln) for TTTTTTCTTTTTATGTGTACTTATTTTATTTAATAA [XGTACX_site1080] , please?
## Output 11.7

## Input // repeat for TTATTAAAAATGTATTGTACAAATTTATTAGTAAAT [XGTACX_site4799] and report
## Output 11

## Input Here is the next sequence: AAAGACAAAAGGAATTGTACATAATATATAAAATAT [XGTACX_site2923]
## Output 10.8

## Input Also need AATATTTATTTTACATGTACTTATTTTTCTTTTAAC [XGTACX_site3631] , thanks.
## Output 11.4

## Input And TGACTTTGTTGAATTTGTCCTCTTAACTCATAATAT [GTGCAC_negctrl_site217] ?
## Output 10.6

---

Reported gcPBM binding intensity (ln) values are given for each entry in this list.
test system: PfAP2-G AP2 domain (GST-tagged); test: gcPBM binding intensity (ln(normalized median fluorescence intensity)); higher = stronger DNA binding
Over roughly 25,000 sequences, “ln(normalized median fluorescence intensity)” has its median near 10; the highest 2% begin near 12. For the sample, the highest values were picked, then their nearest neighbours and some sequences at random.

Example cases with answers are listed next.
- TATATATATATAATGTGTACACAAATATATATTATA [XGTACX_site8786]: 11.7
- AATTTCAATTTCTGTTGTACACTTTTTAATAGTAAA [XGTACX_site4085]: 11.4
- ATACACATATGTTAATGTACACATATATAATATTTA [XGTACX_site163]: 11.3

## Input Entry under review: TTAAGAATATCTTAGAGTACATTTTATCATCTTAAA [XGTACX_site8298] . Reported gcPBM binding intensity (ln)?
## Output 11

---

# gcPBM binding intensity (ln) per record follows
test system: PfAP2-G AP2 domain (GST-tagged); test: gcPBM binding intensity (ln(normalized median fluorescence intensity)); higher = stronger DNA binding
The full ranking holds about 25,000 sequences; the median of “ln(normalized median fluorescence intensity)” is about 10, and the highest 2% start at about 12. Many of the other results were omitted from the sample, so the highest values are more common in it than they were.
API doc: respond with a numeric literal and nothing else, no unit.

* ATATATATAATATAGGTGCACTACTTATTTAAAAAA | 10.5

## Input Endpoint output: gcPBM binding intensity (ln) of TATTTATATAGGTATACACACATACAAATATGTAAA [CACACA_site7705] . Value?
## Output 10

## Input Next: CTTTTGCCCAAAAAGGTACACACCACAATGTACATA [CACACA_site809]
## Output 11.6

---

test system: PfAP2-G AP2 domain (GST-tagged); assay: gcPBM binding intensity (ln(normalized median fluorescence intensity)); higher = stronger DNA binding
In all, about 25,000 sequences were measured (“ln(normalized median fluorescence intensity)”: median about 10, highest 2% from about 12 on). Shown is part of a subset that was picked to be rich in the highest values.
measuredEndpoint: gcPBM binding intensity (ln)
Enter a number only.

Solved entries:
• ATATATATATATATATGTACTTATTTATTTTATATA [XGTACX_site8810] = 11.5
• TAATGGTATAAAAAATGTACATGTTTTTTTACAATT [XGTACX_site4285] = 11.2
• TATATTAAAATTTACTGTACTTTTTTTATTTTAAAA [XGTACX_site4077] = 11.6
• TACATATACATATACACACACACACCCAAATAAATA [CACACA_site1344] = 10.3
• TATAACATTATTTTGTGTACACATTCGGTTATATTA [XGTACX_site6310] = 12
• TATATTTATAACAACACACACAGATCATAAAACTGC [CACACA_site7086] = 10.2
• TTTGTTCATATGAAATGTACAAAAAAAAAAAAAAAA [XGTACX_site8849] = 10.8
• TTATATATTTTTATGTGTACTTATATATATATATAT [XGTACX_site6211] = 11.7
• TATATTTATTCCTGTTGTACTTTATATTATTTTTTT [XGTACX_site1415] = 11.3
• AACATTATTTTGTGTACACATTCGGTTATATTATAT [CACACA_site5628] = 11.8

## Input # lookup: gcPBM binding intensity (ln) of AATTGAAAAAGAAATTGTACATTTTATTTTTATTAT [XGTACX_site1973]
## Output 10.9

---

test system: PfAP2-G AP2 domain (GST-tagged); assay: gcPBM binding intensity (ln(normalized median fluorescence intensity)); higher = stronger DNA binding
The full ranking holds about 25,000 sequences; the median of “ln(normalized median fluorescence intensity)” is about 10, and the highest 2% start at about 12. Shown is part of a subset that was picked to be rich in the highest values.
measuredEndpoint: gcPBM binding intensity (ln)
Please reply with the value in numeric form only.

Record excerpt, results attached:
• AATTTACAAAAAAGAAAAAAAAAAAAAAAGATACTT [CACACA_negctrl_site1434] = 9.65
• ATATATATATAGTGTTGTACATTTAAAAATAATATA [XGTACX_site2627] = 11.2
• CAACATTTATATTTTACACACATCATTTAAGCGCTT [CACACA_site992] = 10.1
• ATTTGTGTATATTAGAGTACATAAAATTAGAGGAAC [XGTACX_site1654] = 11.6

Here is another sequence to look at.
## Input Would you kindly share the measured gcPBM binding intensity (ln) for TTATATTTTTTTGAGTGTACTTTTTGTGTAAAATTC [XGTACX_site2155] ?
## Output 11.5

---

In this section we review reported gcPBM binding intensity (ln) values for a set of sequences.
system: PfAP2-G AP2 domain (GST-tagged); experiment: gcPBM binding intensity (ln(normalized median fluorescence intensity)); higher = stronger DNA binding
Over roughly 25,000 sequences, “ln(normalized median fluorescence intensity)” has its median near 10; the highest 2% begin near 12. The full list was thinned out, with the highest values kept by preference.

The following sequences have reported results that may help.
- TAATATATTTATAAGTGTACACATTATATAAATCCC [XGTACX_site8875]: 11.7
- ATTATATTTTTAAGTACACACATATAAATAAATATA [CACACA_site7682]: 11.4

Now look at this entry.
## Input Quick one: gcPBM binding intensity (ln) for TTATAATATATATGTAGTACTGTTTTTTTCTATTTT [XGTACX_site7749] ?
## Output 11

---

tested on: PfAP2-G AP2 domain (GST-tagged); assay: gcPBM binding intensity (ln(normalized median fluorescence intensity)); higher = stronger DNA binding
The full ranking holds about 25,000 sequences; the median of “ln(normalized median fluorescence intensity)” is about 10, and the highest 2% start at about 12. This excerpt belongs to a sample that is enriched for the highest values.
Threshold check on gcPBM binding intensity (ln): at or above 10 gives satisfied, strictly below gives not satisfied.

* ATCTTAGTTGAAATATAGAATTTATAATAAAAGTTA [GTGCAC_negctrl_site122] | not satisfied
* ACAAAATTTACAAAATGTACAAAATTTACAAAATAT [XGTACX_site3542] | satisfied
* TTTTTAAAACATCACTGTACCCGTTATGGTGAACAT [XGTACX_site3483] | satisfied

## Input Is gcPBM binding intensity (ln) at least 10? Consider AAAAAAAAAAAATGTGCACACGCGTACAGACAAAAA [CACACA_site2005]
## Output satisfied

---

test system: PfAP2-G AP2 domain (GST-tagged); assay: gcPBM binding intensity (ln(normalized median fluorescence intensity)); higher = stronger DNA binding
The full ranking holds about 25,000 sequences; the median of “ln(normalized median fluorescence intensity)” is about 10, and the highest 2% start at about 12. The entries come from a sample that favours the highest values as a whole.
measuredEndpoint: gcPBM binding intensity (ln)
Answer field: number only, no words.

## Input Please tell me: gcPBM binding intensity (ln) of TGAATATAACAAATATGTACTTAAAATTGTTATATT [XGTACX_site5679] , system PfAP2-G AP2 domain (GST-tagged)?
## Output 11.1

## Input What do you have for AAAATAATAAAAAACTGTACGAATTAAAAATTAACA [XGTACX_site8454] ?
## Output 11.1

## Input Can you handle ATTATATATACATATACACACATACGTACATACATA [CACACA_site9194] next?
## Output 11.5
